Tested on: THP-1
Test: Cellular uptake in methicillin-sensitive Staphylococcus aureus ATCC 25923 phagocytized in human THP1 cells assessed as apparent cellular to extracellular concentration ratio at 250 mg/liter after 24 hrs by fluorimetry in presence of 1 uM ouabain
Format: ADME, cell-based
Details: thp-1, 24 h

# Compound Smiles, Ratio
measured = [
    ("CCCCCCCCCC(=O)N[C@@H](Cc1c[nH]c2ccccc12)C(=O)N[C@H](CC(N)=O)C(=O)N[C@@H](CC(=O)O)C(=O)N[C@@H]1C(=O)NCC(=O)N[C@@H](CCCN)C(=O)N[C@@H](CC(=O)O)C(=O)N[C@H](C)C(=O)N[C@@H](CC(=O)O)C(=O)NCC(=O)N[C@H](CO)C(=O)N[C@@H]([C@H](C)CC(=O)O)C(=O)N[C@@H](CC(=O)c2ccccc2N)C(=O)O[C@@H]1C", 0.12),
]

* * *

Tested on: MDCK
Experiment: Cellular uptake in methicillin-sensitive Staphylococcus aureus ATCC 25923 phagocytized in MDCK cells over expressing human MDR1 cells assessed as apparent cellular to extracellular concentration ratio at 250 mg/liter after 24 hrs by fluorimetry in presence of 250 uM gemfibrozil
Format: ADME, cell-based, Canis lupus familiaris
Conditions: dog

# Compound Smiles, Ratio
measured = [
    ("CCCCCCCCCC(=O)N[C@@H](Cc1c[nH]c2ccccc12)C(=O)N[C@H](CC(N)=O)C(=O)N[C@@H](CC(=O)O)C(=O)N[C@@H]1C(=O)NCC(=O)N[C@@H](CCCN)C(=O)N[C@@H](CC(=O)O)C(=O)N[C@H](C)C(=O)N[C@@H](CC(=O)O)C(=O)NCC(=O)N[C@H](CO)C(=O)N[C@@H]([C@H](C)CC(=O)O)C(=O)N[C@@H](CC(=O)c2ccccc2N)C(=O)O[C@@H]1C", 0.07),
]

* * *

Test system: MDCK
Experiment: Cellular uptake in methicillin-sensitive Staphylococcus aureus ATCC 25923 phagocytized in wild type MDCK cells assessed as apparent cellular to extracellular concentration ratio at 250 mg/liter after 24 hrs by fluorimetry in presence of 250 uM gemfibrozil
Assay type: ADME, cell-based, Canis lupus familiaris
Conditions: dog
Recorded Metric: Ratio

# Compound Smiles, Recorded Metric, Endpoint Value
records = [
    ("CCCCCCCCCC(=O)N[C@@H](Cc1c[nH]c2ccccc12)C(=O)N[C@H](CC(N)=O)C(=O)N[C@@H](CC(=O)O)C(=O)N[C@@H]1C(=O)NCC(=O)N[C@@H](CCCN)C(=O)N[C@@H](CC(=O)O)C(=O)N[C@H](C)C(=O)N[C@@H](CC(=O)O)C(=O)NCC(=O)N[C@H](CO)C(=O)N[C@@H]([C@H](C)CC(=O)O)C(=O)N[C@@H](CC(=O)c2ccccc2N)C(=O)O[C@@H]1C", "Ratio", 0.18),
]
